# system: T1, mouse tissue factor pathway inhibitor (TFPI) (mouse, UniProt O54819 29-289, limits assumed)
# T1 construct: bought; also called mTFPI; murine TFPI
# T1 sequence (looked up): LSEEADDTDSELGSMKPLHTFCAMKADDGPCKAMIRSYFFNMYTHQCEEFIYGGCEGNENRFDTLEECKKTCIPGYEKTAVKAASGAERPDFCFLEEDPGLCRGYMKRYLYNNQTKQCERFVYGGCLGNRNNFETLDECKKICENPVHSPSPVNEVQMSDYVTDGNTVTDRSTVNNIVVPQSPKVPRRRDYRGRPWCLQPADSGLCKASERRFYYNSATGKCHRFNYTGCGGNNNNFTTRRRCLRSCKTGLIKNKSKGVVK
# testProtocol: competitive ELISA
This listing pairs binders with measured variant/HC_D62R.
measuredQuantity: variant/HC_D62R (ratio)

binder: 4B7 HC N32D+D62R+H107M+Y112D/LC F31M+D33F+N35I (Fab, V domains shown) VH: QVQLQQSGPGLVKPSQTLSLTCAISGDSVSSDSAAWSWIRQSPGRGLEWLGIIYKRSKWYNRYAVSVKSRITINPDTSKNQFSLQLNSVTPEDTAVYYCARWHSDKMWGFDDWGQGTLVTVSS VL: DIVMTQSPLSLPVTPGEPASISCRSSQSLVMSFGITYLNWYLQKPGQSPQLLIYKGSNRASGVPDRFSGSGSGTDFTLKISRVEAEDVGVYYCQQYDSYPLTFGQGTKVEIKR
result: 46.8
--
binder: 4B7 HC N32D+D62R+H103D+H107M+Y112D/LC S32R+N35T (Fab, V domains shown) VH: QVQLQQSGPGLVKPSQTLSLTCAISGDSVSSDSAAWSWIRQSPGRGLEWLGIIYKRSKWYNRYAVSVKSRITINPDTSKNQFSLQLNSVTPEDTAVYYCARWDSDKMWGFDDWGQGTLVTVSS VL: DIVMTQSPLSLPVTPGEPASISCRSSQSLVFRDGTTYLNWYLQKPGQSPQLLIYKGSNRASGVPDRFSGSGSGTDFTLKISRVEAEDVGVYYCQQYDSYPLTFGQGTKVEIKR
result: 18.4
--
binder: 4B7 HC N32D+D62R+H107M+Y112D/LC F31M+S32R+D33R+N35I+D97T (Fab, V domains shown) VH: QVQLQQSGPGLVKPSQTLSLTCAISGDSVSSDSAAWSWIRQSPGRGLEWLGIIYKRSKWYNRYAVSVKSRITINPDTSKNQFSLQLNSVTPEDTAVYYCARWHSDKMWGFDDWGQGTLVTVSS VL: DIVMTQSPLSLPVTPGEPASISCRSSQSLVMRRGITYLNWYLQKPGQSPQLLIYKGSNRASGVPDRFSGSGSGTDFTLKISRVEAEDVGVYYCQQYTSYPLTFGQGTKVEIKR
result: 9.6
